Entries and their LD50 at 336 h values follow.
- ASSAY_DETAILS: Acute toxicity test
- TEST_PARAMETERS: mouse, in vivo; oral, mice observed for 14 days

Query: Identify measured LD50 at 336 h corresponding to CCCC1CCC([C@H](O)/C=C/[C@H]2[C@H](O)CC(=O)[C@@H]2CC(=O)CCCCC(=O)OC)C1 (single isomer, unassigned)
Reply: 10 to 20 mg/kg

Query: Identify measured LD50 at 336 h corresponding to CCCC1CCC([C@H](O)/C=C/[C@@H]2[C@H]3CC(CCCCC(=O)OC)=N[C@H]3C[C@H]2O)C1 (single isomer, unassigned)
Reply: 40 to 100 mg/kg

Query: Identify measured LD50 at 336 h corresponding to CCCCC1CCC([C@H](O)/C=C/[C@H]2[C@H](O)CC(=O)[C@@H]2CC(=O)CCCCC(=O)OC)C1 (single isomer, unassigned)
Reply: 10 to 20 mg/kg

Query: Identify measured LD50 at 336 h corresponding to COC(=O)CCCCC(=O)C[C@H]1C(=O)C[C@@H](O)[C@@H]1/C=C/[C@@H](O)C1CCCC1
Reply: 10 to 20 mg/kg

Data origin: patent US4464388A
